- Tested on: 636577-100-R-J1-PDC complex spheroid viability;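 further: luminescence signal used as a proxy for viable cells; viability read after seven days of drug exposure; 100% = DMSO vehicle control wells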
- PROTOCOL: Anticancer human tumor 636577-100-R-J1-PDC patient-derived endometrial adenocarcinoma cell line growth inhibition [GQUAD]
- CONDITION DESCRIPTION: second compound 3.16 µM; first compound 0.000999 µM; active compounds read low
REPORTED PROPERTY: viability, T/C

Illustrative cases are given below, each with its answer.
{"columns": ["COMPOUND", "viability, T/C"],
 "data": [
  ["CC[C@@]1(O)C(=O)OCc2c1cc1n(c2=O)Cc2cc3c(CN(C)C)c(O)ccc3nc2-1 + CN(C)c1ccc(Nc2c3ccc(NC(=O)CCN4CCCC4)cc3nc3cc(NC(=O)CCN4CCCC4)ccc23)cc1", "34.8%"],
  ["Cc1[nH]c2ccccc2c1CCNCc1ccc(/C=C/C(=O)NO)cc1 + Cc1[nH]c2ccc(F)cc2c1-c1nc2c3cccnc3c3ncccc3c2[nH]1", "23.2%"],
  ["Cc1[nH]c2ccccc2c1CCNCc1ccc(/C=C/C(=O)NO)cc1 + CN(C)c1ccc(Nc2c3ccc(NC(=O)CCN4CCCC4)cc3nc3cc(NC(=O)CCN4CCCC4)ccc23)cc1", "37.1%"]
]}

Item: Cn1ncnc1[C@H]1c2n[nH]c(=O)c3cc(F)cc(c23)N[C@@H]1c1ccc(F)cc1 + Cc1cnc(CNC(=O)c2c(=O)c3ccc(N4CCCN(C)CC4)nc3n3c2sc2ccccc23)cn1 Test system: 636577-100-R-J1-PDC complex spheroid viability Read-out: viability, T/C Value: ? 19%

And Cc1[nH]c2ccccc2c1CCNCc1ccc(/C=C/C(=O)NO)cc1 + Cc1cnc(CNC(=O)c2c(=O)c3ccc(N4CCCN(C)CC4)nc3n3c2sc2ccccc23)cn1 ? 20.2%
